- Experimental Target: T1, Human NOTUM (human, UniProt Q6P988 20-496)
- T1 construct: also called human notum pectinacetylesterase; recombinant human NOTUM
- T1 sequence: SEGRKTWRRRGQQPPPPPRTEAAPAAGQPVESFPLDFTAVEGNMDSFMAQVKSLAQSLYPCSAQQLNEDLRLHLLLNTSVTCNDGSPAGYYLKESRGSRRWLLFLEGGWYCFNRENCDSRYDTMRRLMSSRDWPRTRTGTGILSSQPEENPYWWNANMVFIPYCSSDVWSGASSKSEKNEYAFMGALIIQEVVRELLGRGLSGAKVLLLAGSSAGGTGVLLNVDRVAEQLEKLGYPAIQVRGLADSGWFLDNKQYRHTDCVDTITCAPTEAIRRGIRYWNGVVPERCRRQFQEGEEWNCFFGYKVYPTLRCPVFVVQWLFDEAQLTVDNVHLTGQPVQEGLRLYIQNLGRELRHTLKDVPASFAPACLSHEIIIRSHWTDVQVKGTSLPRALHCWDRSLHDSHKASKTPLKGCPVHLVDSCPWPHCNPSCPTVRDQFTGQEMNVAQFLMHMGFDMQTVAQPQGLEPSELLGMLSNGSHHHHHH
- Method Summary: Biacore 3000
We begin with a simple list: items and their reported Kd.
Number in nM, nothing else.

Please review the following examples before continuing.
- Binder: "2.78 Fab (Fab, V domains shown, Fab made by digestion of whole IgG (mouse IgG2b) with ficin) VH: DVQLVESGGGLVQPGGSRKLSCAASGFTFSSFGMHWVRQAPEKGLEWVAYITSGSGAIYYADTVRGRFTISRDTPKNTLFLQMTSLRSEDTAMYYCARSADGLDYWGQGTSVTVSS VL: DIQMTQSPASLYVSVGETVTITCRASENIYSNLAWYQQKQGKSPQLLVYGATNLADGVPSRFSGSGSGTQYSLKINSLKSEDFGSYYCQHFWGTPFTFGSGTKLEIKR"
  Kd, nM: 15.4
- Binder: "1.802 Fab (Fab, V domains shown, Fab made by digestion of whole IgG (mouse IgG1) with ficin) VH: EVQLVESGGGLVKPGGSLKLSCAASGFTFSDYGMHWFRQAPEKGLEWVAYISSGSRTVYYADTVKGRFTISRDNAKNTLSLQMTSLRSEDTAMYYCARKHYNGGYFDVWGTGTTVTVSS VL: DIVLTQSPASLAVSLGQRATISCRASKIVSTSGYSYMHWYQQKPGQPPKLLIYLASNLESGVPARFSGSGSGTDFTLNIHPVEEEDAATYYCQHSRELPPTFGSGTKLEIKR"
  Kd, nM: 0.91
- Binder: "MAb 1.802 (antibody, V domains shown, Mouse monoclonal antibody from Campaign 1 (raised against human NOTUM), IgG1) VH: EVQLVESGGGLVKPGGSLKLSCAASGFTFSDYGMHWFRQAPEKGLEWVAYISSGSRTVYYADTVKGRFTISRDNAKNTLSLQMTSLRSEDTAMYYCARKHYNGGYFDVWGTGTTVTVSS VL: DIVLTQSPASLAVSLGQRATISCRASKIVSTSGYSYMHWYQQKPGQPPKLLIYLASNLESGVPARFSGSGSGTDFTLNIHPVEEEDAATYYCQHSRELPPTFGSGTKLEIKR"
  Kd, nM: 1.42

API: the following record is the query input.
Q. Note Kd for the binder shown: MAb 2.1029 (antibody, IgG2a, V domains shown, Mouse monoclonal antibody from Campaign 2, IgG2a) VH: QVQLKESGPGLVAPSQSLSITCTVSGFSLTSYGVHWVRQPPGKGLEWLGVIWAGGSTNYNSALMSRLSISKDNSKSQVFLKMNSLQTDDTAIYFCARDGDYGTIYAMDYWGQGTSVTVSS VL: DIQMTQTTSSLSASLGDRVTISCRASQDISNYLNWYQQKPDGTVKLLIYYTSRLHSGVPSRFTGSGSGTDYSLTISNLEQEDIATYFCQQGKTLPRTFGGGTMLEIKR
A. 5.99

Origin of the recorded values: patent US20130302346A1
